# SYSTEM_UNDER_TEST: BACE1 (Homo sapiens, UniProt P56817)
# Construct: purchased R&D 931-AS-050
# Sequence (P56817 46-457 limits assumed): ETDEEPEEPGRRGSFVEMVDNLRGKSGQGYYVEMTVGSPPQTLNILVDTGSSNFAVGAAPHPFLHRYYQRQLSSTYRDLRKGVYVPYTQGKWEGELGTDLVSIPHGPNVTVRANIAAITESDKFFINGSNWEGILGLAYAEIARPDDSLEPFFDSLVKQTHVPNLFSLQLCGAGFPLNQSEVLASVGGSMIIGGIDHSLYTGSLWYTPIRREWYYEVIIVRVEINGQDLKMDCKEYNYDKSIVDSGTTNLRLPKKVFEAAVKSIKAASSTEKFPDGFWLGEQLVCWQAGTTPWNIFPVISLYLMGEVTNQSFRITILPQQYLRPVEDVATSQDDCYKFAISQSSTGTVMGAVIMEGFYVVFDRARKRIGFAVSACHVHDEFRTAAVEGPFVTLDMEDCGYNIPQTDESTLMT
# RUN_DESCRIPTION: in vitro BACE inhibition assay (Primary BACE1 IC50)
# Type: biochemical
# DETAILS: Tables 1 and 2; read-out: Primary BACE1 IC50
MEASURED_METRIC: IC50 (nM)
Write the answer as a number in nM, unit excluded.

Example entries and their recorded answers appear below.
COMPOUND	UNITS	READING
Cc1cc(C2(c3cncnc3)N=C(N)N(C)C2=O)ccc1OC(F)F (stereo not drawn)	nM	10000
Cc1cc(C2(c3cncc(F)c3)N=C(N)N(C)C2=O)ccc1OC(F)F (stereo not drawn)	nM	5300
Cc1cc(C2(c3cccc(C(F)(F)F)c3)N=C(N)N(C)C2=O)ccc1OC(F)F (stereo not drawn)	nM	380
COc1cc(C2(c3ccc(OC(F)F)c(C)c3)N=C(N)N(C)C2=O)ccn1 (stereo not drawn)	nM	4800
Cc1cc(C2(c3cccc(F)c3)N=C(N)N(C)C2=O)ccc1OC(F)F (stereo not drawn)	nM	150
Cc1cc(C2(c3cc(F)cc(F)c3)N=C(N)N(C)C2=O)ccc1OC(F)F (stereo not drawn)	nM	530
COCc1cc(C2(c3ccc(OC(F)F)c(C)c3)N=C(N)N(C)C2=O)ccn1 (stereo not drawn)	nM	2000
Cc1cc(C2(C3CCCCC3)N=C(N)N(C)C2=O)ccc1OC(F)F (stereo not drawn)	nM	1500

Kindly consider the entry below.
Looking up Cc1cccc(C2(c3ccc(OC(F)F)c(C)c3)N=C(N)N(C)C2=O)c1 (stereo not drawn) , I found its IC50 recorded as 130

* * *

# SYSTEM_UNDER_TEST: BACE1 (Homo sapiens, UniProt P56817)
# Construct: purchased R&D 931-AS-050
# RUN_DESCRIPTION: in vitro BACE inhibition assay (Primary BACE1 IC50)
# Type: biochemical
# DETAILS: Tables 1 and 2; read-out: Primary BACE1 IC50
Structures can show the parent of a compound that is named as a salt.
Parameter pIC50: see the listing below.
Units for pIC50: none; it is -log10 of a concentration expressed in mol/L.

Example molecules with recorded pIC50:
MOLECULE	pIC50
Cc1cc(C2(c3cnn(C)c3)N=C(N)N(C)C2=O)ccc1OC(F)F (stereo not drawn) [30 HCl]	5.70
Cc1cc(C2(c3cc(F)cc(Cl)c3)N=C(N)N(C)C2=O)ccc1OC(F)F (stereo not drawn) [FAH-25]	6.24
Cc1cc(C2(c3cccc(-c4cccnc4)c3)N=C(N)N(C)C2=O)ccc1OC(F)F (stereo not drawn) [FAH-32]	7.15
Cc1cc(C2(c3ccc(OC(F)F)c(C)c3)N=C(N)N(C)C2=O)ccn1 (stereo not drawn) [FAH-47]	5.85
CNCc1cccc(C2(c3ccc(OC(F)F)c(C)c3)N=C(N)N(C)C2=O)c1 (stereo not drawn) [FAH-62]	6.22

Record Cc1cc(C2(c3ccnc(F)c3)N=C(N)N(C)C2=O)ccc1OC(F)F (stereo not drawn) [FAH-46] ; system BACE1 (Homo sapiens, UniProt P56817); pIC50 = 5.92

Item Cc1cc(C2(c3cccc(Cl)c3)N=C(N)N(C)C2=O)ccc1OC(F)F (stereo not drawn) [FAH-23] ; assay system BACE1 (Homo sapiens, UniProt P56817); pIC50 reported as 6.49

Known value: BACE1 (Homo sapiens, UniProt P56817) pIC50 of the molecule COCc1cccc(C2(c3ccc(OC(F)F)c(C)c3)N=C(N)N(C)C2=O)c1 (stereo not drawn) [FAH-44] equals 6.52
